Species on record: Homo sapiens
Test: Inhibition of transglutaminase in human keratinocytes assessed as mean transglutaminase activity level at 5.0 10^-8M in presence of 10 uM retinal relative to retinal alone
Assay type: cell-based
Parameters: scale not given: the % may be the effect or the level left
Some molecules, each annotated with its measured Activity.
endpointName: Activity (%)

INSERT INTO assay_data (molecule, datavalue) VALUES
  ('CCCCCCCC/C=C/CCCCCCCC(=O)O', 50.5),
  ('O=C(O)CCCCCCCCCCCCCCC(=O)O', 74),
  ('CCCCCCC(O)CCCCCCCCCCC(=O)O (centres undefined)', 81),
  ('CC(C)CCCCCCCCCCCCCCC(=O)O', 78);

###

Biological target: Lecithin retinol acyltransferase (Bos taurus);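 further: bovine retinal pigment epithelium microsomes given retinol plus palmitoyl-CoA, 5 min reaction, ester formation read by HPLC, inhibition expressed versus untreated control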
Details: at 100 µM
Description: Inhibition of LRAT in bovine RPE microsomes at 100 uM using retinol substrate in presence of Palmitoyl-CoA incubated for 5 mins by HPLC analysis relative to control
So basically: inhibition at 40% or higher? That is 1.0. Lower than 40%? That is 0.0.

INSERT INTO results (compound, assignedlabel) VALUES
  ('CC(=O)C1(C)C2CC3C(C2)C31C (stereo unspecified)', 0.0),
  ('CC(=O)/C(C)=C/C1C(C)=CCCC1(C)C (stereo unspecified)', 0.0),
  ('CCCCC/C=C\C/C=C\CCCCCCCC(=O)N(CCO)CCO', 1.0),
  ('CC1=CC[C@H](CC[C@H](C)CO)C1(C)C', 1.0),
  ('CC(C)=CCC/C(C)=C/CC/C(C)=C/CC/C(C)=C/CO', 1.0),
  ('O=C1C[C@@H](c2ccc(O)cc2)Oc2cc(O)cc(O)c21', 0.0);

###

Organism: Rattus norvegicus
Experiment: Inhibition of retinal reductase in Sprague-Dawley rat liver microsomes at 100 uM using all-trans retinaldehyde and NADPH by HPLC analysis relative to control
So basically: inhibition at 30% or higher? That is 1. Lower than 30%? That is 0.

INSERT INTO results (entrysmiles, assignedlabel) VALUES
  ('CC/C=C\C/C=C\C/C=C\CCCCCCCC(=O)O', 1),
  ('CC1(C)[C@@H](OC(=O)CCC(=O)O)CC[C@]2(C)[C@H]3C(=O)C=C4[C@@H]5C[C@@](C)(C(=O)O)CC[C@]5(C)CC[C@@]4(C)[C@]3(C)CC[C@@H]12', 0),
  ('CCCCC/C=C\C/C=C\CCCCCCCC(=O)O', 1),
  ('COc1cc(NS(C)(=O)=O)ccc1Nc1c2ccccc2nc2ccccc12', 0),
  ('CC1(C)[C@@H](O)CC[C@]2(C)[C@H]3C(=O)C=C4[C@@H]5C[C@@](C)(C(=O)O)CC[C@]5(C)CC[C@@]4(C)[C@]3(C)CC[C@@H]12', 1);

###

Organism: Homo sapiens
Test: Inhibition of transglutaminase in human keratinocytes assessed as mean transglutaminase activity level at 3.3 10^-6M in presence of 10 uM retinal relative to retinal alone
Format: cell-based
Set-up: scale not given: the % may be the effect or the level left
Some molecules, each annotated with its measured Activity.
endpointName: Activity

INSERT INTO measurements (entrysmiles, endpointname, datavalue) VALUES
  ('CC1(C)[C@@H](O)CC[C@]2(C)[C@H]3C(=O)C=C4[C@@H]5C[C@@](C)(C(=O)O)CC[C@]5(C)CC[C@@]4(C)[C@]3(C)CC[C@@H]12', 'Activity', '2.5%'),
  ('CCCCCCCC/C=C\CCCCCCCCCCCCCC(=O)N[C@@H](COP(=O)([O-])OCC[N+](C)(C)C)[C@H](O)/C=C/CCCCCCCCCCCCC', 'Activity', '76.4%'),
  ('COc1cc(NS(C)(=O)=O)ccc1Nc1c2ccccc2nc2ccccc12', 'Activity', '64%'),
  ('CC1(C)[C@@H](OC(=O)CCC(=O)O)CC[C@]2(C)[C@H]3C(=O)C=C4[C@@H]5C[C@@](C)(C(=O)O)CC[C@]5(C)CC[C@@]4(C)[C@]3(C)CC[C@@H]12', 'Activity', '51.7%');
